Just for reference, patent US7141569B2 is where these values come from.

# System: HSV-1
# test_protocol: HSV-1 infection of Vero 76 cells, viral DNA detected by hybridization capture (chemiluminescence)
# Assay type: cell-based
# experimental_conditions: Human alphaherpesvirus 1; HSV-1 in Vero 76 cells, MOI=0.001, compounds incubated 40–48 hours at 37° C.
assay_readout: IC50 (nM)

Exercise: For the molecule Nc1ccn2nc(-c3ccc(F)cc3)c(-c3ccnc(NC4CCCC4)n3)c2c1 [Example 3] , what IC50 is on record?
Solution: 5000

Exercise: For the molecule Fc1ccc(-c2nn3cc(NC4CCCC4)ccc3c2-c2ccnc(NC3CCCC3)n2)cc1 [Example 6] , what IC50 is on record?
Solution: 1000

Exercise: For the molecule CC(C)COc1ccc(-c2nn3ccc(NC4CCCC4)cc3c2-c2ccnc(NC3CCCC3)n2)cc1 [Example 19] , what IC50 is on record?
Solution: 500

Exercise: For the molecule COCCNc1ccn2nc(-c3ccc(F)cc3)c(-c3ccnc(NC4CCCC4)n3)c2c1 [Example 8] , what IC50 is on record?
Solution: 1000

Exercise: For the molecule Fc1ccc(-c2nn3ccc(NC4CCCC4)cc3c2-c2ccnc(NC3CCCC3)n2)cc1 [Example 2] , what IC50 is on record?
Solution: 500

a = COc1ccc(-c2nn3ccc(NC(C)C)cc3c2-c2ccnc(NC3CCCC3)n2)cc1 [Example 12]
b = Fc1ccc(-c2nn3ccc(NC4CCCC4)c(Cl)c3c2-c2ccnc(NC3CCCC3)n2)cc1 [Example 14]
c = COc1ccc(-c2nn3ccc(NC4CCCC4)c(Cl)c3c2-c2ccnc(NC3CCCC3)n2)cc1 [Example 16]
d = COc1ccc(-c2nn3ccc(NC4CCCC4)cc3c2-c2ccnc(NC3CCCC3)n2)cc1 [Example 10]
e = c1cc(-c2c(-c3ccc(OCC4CC4)cc3)nn3ccc(NC4CCCC4)cc23)nc(NC2CCCC2)n1 [Example 20]
Exercise: Descending sort on IC50 required. Provide your answer as the labels ordered per the instruction.
Solution: c, b, a, e, d
(c: 2800 nM, b: 1900 nM, a: 800 nM, e: 300 nM, d: 200 nM)
